Tested on: Mycobacterium tuberculosis
Assay: Antituberculosis activity against Mycobacterium tuberculosis H37Rv in glycerol-alanine salts medium incubated for 4 days by Microplate Alamar Blue assay
Assay type: functional
Conditions: 96 h
RECORDED_METRIC: MIC (µM)
Write it as a number; the unit µM goes unstated.

I'd like to know its MIC. The molecule in question is CCOc1ccc(C(=O)N(OCc2ccccc2)C2CC(=O)N2SC)cc1 (racemic)
34.8

I'd like to know its MIC. The molecule in question is CSN1C(=O)[C@@H](NC(=O)COc2ccccc2)[C@@H]1N(OCc1ccccc1)C(=O)c1cc([N+](=O)[O-])cc(C(F)(F)F)c1 (racemic)
64.1

I'd like to know its MIC. The molecule in question is O=C1CC(N(OCc2ccccc2)C(=O)c2cc([N+](=O)[O-])cc(C(F)(F)F)c2)N1 (racemic)
30.3
